test system: CCRF-CEM leukemia; experiment: NCI tumour cell line growth inhibition, 48 h; in the data active means GI50 below about 0.43 µM; inactive means the rest
I would appreciate it if you answered using one of these outcomes: 1 (yes) for active, 0 (no) for inactive

Per the records of this test, what outcome belongs to "O=C1C(=O)c2ccccc2C(O)=C1CCCc1ccc(C2CCCCCC2)cc1" ?
0 (no)

Per the records of this test, what outcome belongs to "COc1cc(N2CCN(C(C)C)CC2)ccc1Nc1nc(Nc2cccc(F)c2C(=O)O)c2cc[nH]c2n1" ?
0 (no)

Per the records of this test, what outcome belongs to Nc1nc(N)c2c(n1)NC(c1ccccc1)C1CCc3ccccc3C1=N2 (stereo not drawn) ?
0 (no)

Per the records of this test, what outcome belongs to "CN1CCN(Cc2ccc(NC(=O)c3cncc(C#Cc4cncc5nccnc45)c3)cc2C(F)(F)F)CC1" ?
0 (no)

Per the records of this test, what outcome belongs to "COCCN1CCN(Cc2ccc(-c3n[nH]c4c3C(=O)c3c(NC(=O)NN5CCOCC5)cccc3-4)cc2)CC1" ?
1 (yes)

Per the records of this test, what outcome belongs to "Cc1cc2nc3cc(C)c(N)cc3[n+](-c3ccccc3)c2cc1N" ?
0 (no)

Per the records of this test, what outcome belongs to "COc1cc(-c2n/c(=C\c3c(O)[nH]c4cc(Cl)ccc34)cc3c2=Nc2ccccc2-3)cc(OC)c1OC" ?
0 (no)

Per the records of this test, what outcome belongs to "CCCCC(=O)N/N=C/c1c(O)ccc2ccccc12" ?
1 (yes)
